- target-entity: Aminopeptidase N (Plasmodium falciparum (isolate 3D7)) (UniProt O96935)
- Sequence (O96935 whole entry, looked up): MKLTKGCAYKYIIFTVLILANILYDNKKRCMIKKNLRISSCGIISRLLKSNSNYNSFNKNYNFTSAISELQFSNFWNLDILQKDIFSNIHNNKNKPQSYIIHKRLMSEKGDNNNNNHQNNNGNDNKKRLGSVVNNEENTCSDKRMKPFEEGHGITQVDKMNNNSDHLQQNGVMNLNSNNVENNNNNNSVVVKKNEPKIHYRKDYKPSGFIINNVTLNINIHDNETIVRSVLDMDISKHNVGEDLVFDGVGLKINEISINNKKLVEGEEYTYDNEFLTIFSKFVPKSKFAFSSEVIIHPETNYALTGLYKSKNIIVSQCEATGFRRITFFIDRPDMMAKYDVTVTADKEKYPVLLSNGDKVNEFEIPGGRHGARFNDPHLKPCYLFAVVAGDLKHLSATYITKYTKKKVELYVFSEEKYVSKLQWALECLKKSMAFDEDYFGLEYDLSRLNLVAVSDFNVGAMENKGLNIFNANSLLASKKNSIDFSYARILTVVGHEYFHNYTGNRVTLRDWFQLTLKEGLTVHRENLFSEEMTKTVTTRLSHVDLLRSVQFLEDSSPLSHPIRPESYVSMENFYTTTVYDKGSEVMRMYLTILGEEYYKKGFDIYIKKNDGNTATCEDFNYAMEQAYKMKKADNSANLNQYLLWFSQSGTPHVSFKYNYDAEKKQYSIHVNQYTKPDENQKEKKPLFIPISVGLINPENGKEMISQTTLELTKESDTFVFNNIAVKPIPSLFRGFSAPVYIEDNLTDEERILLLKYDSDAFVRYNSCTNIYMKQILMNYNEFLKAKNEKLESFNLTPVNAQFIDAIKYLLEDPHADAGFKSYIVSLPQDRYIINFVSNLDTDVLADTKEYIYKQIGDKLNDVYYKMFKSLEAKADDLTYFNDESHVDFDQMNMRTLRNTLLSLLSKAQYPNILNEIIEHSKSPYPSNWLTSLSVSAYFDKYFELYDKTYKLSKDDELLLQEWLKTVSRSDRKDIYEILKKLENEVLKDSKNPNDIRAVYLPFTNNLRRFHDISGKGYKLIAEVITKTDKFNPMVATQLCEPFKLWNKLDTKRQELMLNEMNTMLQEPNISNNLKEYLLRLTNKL
- assay-protocol: malaria alanyl aminopeptidase activity blockers – biochemical, fluorogenic H-Leu-NHMec substrate, 1536-well (AID 1445);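 note: plate controls were DMSO full reaction for no effect and no enzyme background for full effect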
- condition-notes: recombinant M1AAP, H-Leu-NHMec fluorogenic kinetic assay; at 30 µM, hits give high values unless noted
The campaign covered roughly 220,000 compounds. About 910 (0.41%) were called active. This excerpt belongs to a sample that is enriched for actives. Results with a measured potency or affinity are listed apart.
quantity: inhibition (%)
Answer with a number only, understood to be in %.

Completed entries (count: 5):
O=S(=O)(Nc1nccs1)c1cc(Cl)ccc1Cl : 25.8
COc1ccccc1NS(=O)(=O)c1cccc(NC(=O)Nc2ccccc2)c1 : 2.5
O=S(=O)(Nc1cccnc1)c1cc(Cl)ccc1Cl : 25.4
O=c1nc(/C=C/c2ccc(-c3ccc(F)cc3)o2)cc(C(F)(F)F)[nH]1 : 27.6
O=S(=O)(Nc1ncccn1)c1ccc(NS(=O)(=O)c2cc(Cl)ccc2Cl)cc1 : 30.4

Ask: May I ask what inhibition has been recorded for O=C(NCCc1nc2ccccc2[nH]1)/C(=C/c1ccco1)NC(=O)c1ccc(Br)cc1 ?
Reply: 3.21

Ask: Could you do the same for O=S(=O)(Nc1nccs1)c1ccc(Cl)cc1 , please?
Reply: -5.71
